biological target: EGFR L858R/T790M mutant (Homo sapiens (Human), UniProt P00533, L858R/T790M); assay: HotSpot radiometric kinase assay, EGFR L858R/T790M; settings: radiometric filter-binding, 10 μM ATP; read-out: EGFR (L858R/T790M)_IC50
Sequence (P00533 25-1210 T790M/L858R): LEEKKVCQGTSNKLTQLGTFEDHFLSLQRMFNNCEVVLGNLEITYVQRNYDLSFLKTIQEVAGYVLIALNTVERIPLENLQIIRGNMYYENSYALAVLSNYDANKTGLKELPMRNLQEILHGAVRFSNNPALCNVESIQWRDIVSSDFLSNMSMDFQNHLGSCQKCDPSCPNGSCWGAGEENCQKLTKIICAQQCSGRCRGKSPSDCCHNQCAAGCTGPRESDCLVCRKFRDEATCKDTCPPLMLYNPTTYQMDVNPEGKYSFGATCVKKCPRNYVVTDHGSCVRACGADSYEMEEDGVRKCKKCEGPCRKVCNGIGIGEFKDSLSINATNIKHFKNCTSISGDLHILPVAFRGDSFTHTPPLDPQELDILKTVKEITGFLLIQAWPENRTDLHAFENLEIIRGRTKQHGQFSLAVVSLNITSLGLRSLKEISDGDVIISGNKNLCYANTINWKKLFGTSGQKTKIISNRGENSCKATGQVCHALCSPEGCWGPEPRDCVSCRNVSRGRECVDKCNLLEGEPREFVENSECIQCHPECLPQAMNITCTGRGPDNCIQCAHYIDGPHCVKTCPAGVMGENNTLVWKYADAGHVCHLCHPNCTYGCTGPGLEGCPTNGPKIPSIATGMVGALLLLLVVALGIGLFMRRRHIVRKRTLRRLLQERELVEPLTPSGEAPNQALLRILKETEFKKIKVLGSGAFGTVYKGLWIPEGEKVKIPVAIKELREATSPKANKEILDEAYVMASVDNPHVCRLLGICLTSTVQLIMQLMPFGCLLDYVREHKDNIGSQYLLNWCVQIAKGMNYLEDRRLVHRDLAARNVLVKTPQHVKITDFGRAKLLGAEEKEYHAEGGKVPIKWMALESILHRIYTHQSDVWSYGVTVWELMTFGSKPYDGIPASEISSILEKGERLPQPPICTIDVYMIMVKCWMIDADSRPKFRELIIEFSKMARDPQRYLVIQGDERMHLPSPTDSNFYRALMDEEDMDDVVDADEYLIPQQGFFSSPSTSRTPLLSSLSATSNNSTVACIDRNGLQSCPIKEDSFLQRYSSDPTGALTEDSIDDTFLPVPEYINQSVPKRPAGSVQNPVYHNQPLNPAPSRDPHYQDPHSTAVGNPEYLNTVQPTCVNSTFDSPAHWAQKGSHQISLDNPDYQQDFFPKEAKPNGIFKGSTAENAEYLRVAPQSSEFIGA
PARAMETER MEASURED: IC50 (µM)

(a) Cn1ncc2c1OCCCOc1ccccc1/C=C/c1n[nH]c3cnc-2cc13 [Cpd. 1]
(b) Cn1ncc2c1OCCCOc1ccccc1/C=C/c1n[nH]c3ccc-2nc13 [Cpd. 2]
(c) Cn1ncc2c1OCCCOc1ccccc1/C=C/c1n[nH]c3ccc-2cc13 [Cpd. 3]
Give the order of the entries above, sorted from least to greatest IC50. I would appreciate it if you listed the labels in the requested order.
a, c, b
(a: 0.0041 µM, c: 0.138 µM, b: 0.301 µM)

###

biological target: EGFR L858R/T790M/C797S mutant (Homo sapiens (Human), UniProt P00533, C797S/L858R/T790M); assay: HotSpot radiometric kinase assay, EGFR L858R/T790M/C797S; settings: radiometric filter-binding, 10 μM ATP; read-out: EGFR (L858R/T790M/C797S/)_IC50
Sequence (P00533 25-1210 T790M/C797S/L858R): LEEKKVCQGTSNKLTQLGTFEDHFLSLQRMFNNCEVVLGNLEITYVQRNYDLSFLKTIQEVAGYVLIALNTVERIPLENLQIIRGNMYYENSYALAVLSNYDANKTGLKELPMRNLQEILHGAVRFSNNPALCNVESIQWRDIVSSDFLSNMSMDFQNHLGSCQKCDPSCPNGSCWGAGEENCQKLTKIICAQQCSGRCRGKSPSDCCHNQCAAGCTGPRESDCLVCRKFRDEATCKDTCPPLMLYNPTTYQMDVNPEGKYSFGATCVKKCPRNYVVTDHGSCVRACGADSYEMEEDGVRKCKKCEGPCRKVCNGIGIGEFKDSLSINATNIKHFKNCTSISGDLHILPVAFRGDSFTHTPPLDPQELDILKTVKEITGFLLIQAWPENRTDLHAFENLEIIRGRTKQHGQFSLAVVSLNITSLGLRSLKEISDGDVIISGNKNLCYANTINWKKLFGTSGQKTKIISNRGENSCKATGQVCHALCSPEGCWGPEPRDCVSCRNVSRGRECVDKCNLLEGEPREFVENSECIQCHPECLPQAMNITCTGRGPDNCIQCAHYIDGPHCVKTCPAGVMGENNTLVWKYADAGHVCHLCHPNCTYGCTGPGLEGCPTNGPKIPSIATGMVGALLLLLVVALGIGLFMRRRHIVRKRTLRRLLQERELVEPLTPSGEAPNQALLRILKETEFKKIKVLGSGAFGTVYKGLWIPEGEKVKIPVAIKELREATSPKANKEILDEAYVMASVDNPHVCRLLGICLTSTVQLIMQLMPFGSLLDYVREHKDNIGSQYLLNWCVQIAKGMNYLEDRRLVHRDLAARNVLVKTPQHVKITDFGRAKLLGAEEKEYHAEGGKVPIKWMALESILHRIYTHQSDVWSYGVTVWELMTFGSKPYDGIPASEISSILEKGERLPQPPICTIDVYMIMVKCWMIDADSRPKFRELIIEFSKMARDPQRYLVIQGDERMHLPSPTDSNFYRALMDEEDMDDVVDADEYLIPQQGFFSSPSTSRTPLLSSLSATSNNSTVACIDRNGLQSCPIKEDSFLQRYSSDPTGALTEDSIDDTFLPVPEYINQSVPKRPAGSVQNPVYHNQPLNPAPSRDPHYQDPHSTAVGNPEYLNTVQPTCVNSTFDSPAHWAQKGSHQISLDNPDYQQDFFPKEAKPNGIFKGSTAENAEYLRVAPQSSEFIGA
pIC50: −log10 of the molar value.
PARAMETER MEASURED: pIC50

Some entries whose results are on file:
| COMPOUND | NUMERIC RESULT |
| --- | --- |
| Cn1ncc2c1OCCCOc1ccccc1/C=C/c1n[nH]c3ccc-2cc13 [Cpd. 3] | 6.56 |
| CN(C)CCNC(=O)c1ccc2c(c1)/C=C/c1n[nH]c3cnc(cc13)-c1cnn(C)c1OCCCO2 [Cpd. 71] | 8.43 |
| CN(C)CCNC(=O)c1ccc2c(c1)OCCOCc1c(cnn1C)-c1cc3c(n[nH]c3cn1)/C=C/2 [Cpd. 81] | 7.85 |

(A) Cn1ncc2c1OCCCOc1ccccc1/C=C/c1n[nH]c3ccc-2nc13 [Cpd. 2]
(B) Cn1ncc2c1OCCCOc1ccccc1/C=C/c1n[nH]c3cnc-2cc13 [Cpd. 1]
Higher pIC50: A or B ? Label of pick, please.
B

###

target: EGFR (Δ746-750) (Homo sapiens (Human), UniProt P00533, DEL746-750); experiment: HotSpot radiometric kinase assay, EGFR Δ746-750; details: radiometric filter-binding, 10 μM ATP
Sequence (P00533 other isoform, or with tags, fused parts or gaps del 1-668/del 746-750 limits assumed): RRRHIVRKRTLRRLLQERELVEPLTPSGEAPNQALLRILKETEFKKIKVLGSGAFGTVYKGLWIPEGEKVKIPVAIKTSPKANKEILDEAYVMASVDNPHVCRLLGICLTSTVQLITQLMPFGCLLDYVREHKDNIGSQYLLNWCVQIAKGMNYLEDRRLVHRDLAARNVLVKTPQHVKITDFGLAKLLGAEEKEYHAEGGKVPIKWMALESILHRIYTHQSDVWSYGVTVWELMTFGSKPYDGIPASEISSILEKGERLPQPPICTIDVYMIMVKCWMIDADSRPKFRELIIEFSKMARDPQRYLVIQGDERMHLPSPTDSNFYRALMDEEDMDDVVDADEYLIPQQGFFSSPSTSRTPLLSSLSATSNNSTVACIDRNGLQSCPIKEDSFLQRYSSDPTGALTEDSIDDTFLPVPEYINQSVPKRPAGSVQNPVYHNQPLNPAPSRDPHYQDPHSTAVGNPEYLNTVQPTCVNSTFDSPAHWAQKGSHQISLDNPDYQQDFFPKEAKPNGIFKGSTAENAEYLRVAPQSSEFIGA
pIC50: −log10 of the molar value.
PARAMETER MEASURED: pIC50

| SMILES | pIC50 |
| --- | --- |
| COC(=O)c1ccc2c(c1)/C=C/c1n[nH]c3cnc(cc13)-c1cnn(C)c1OCCCO2 | 7.03 |
| CN1CCC(NC(=O)c2ccc3c(c2)OCCOCc2c(cnn2C)-c2cc4c(n[nH]c4cn2)/C=C/3)CC1 | 7.15 |
| Cn1ncc2c1OCCCOc1ccccc1/C=C/c1n[nH]c3ccc-2cc13 | 7.10 |

###

target: EGFR (Δ746-750) (Homo sapiens (Human), UniProt P00533, DEL746-750); assay: HotSpot radiometric kinase assay, EGFR Δ746-750; settings: radiometric filter-binding, 10 μM ATP
PARAMETER MEASURED: IC50 (nM)

Sample records with IC50:
| COMPOUND | IC50 / nM |
| --- | --- |
| CN(C)CCCNC(=O)c1ccc2c(c1)/C=C/c1n[nH]c3cnc(cc13)-c1cnn(C)c1OCCCO2 [Cpd. 70] | 2.9 |
| CN1CC(NC(=O)c2ccc3c(c2)OCCCOc2c(cnn2C)-c2cc4c(n[nH]c4cn2)/C=C/3)C1 [Cpd. 83] | 34.4 |

(1) Cn1ncc2c1COCCOc1ccccc1/C=C/c1n[nH]c3cnc-2nc13 [Cpd. 16]
(2) Cc1ccc2c(n1)/C=C/c1n[nH]c3cnc(cc13)-c1cnn(C)c1C(C)OCCO2 (stereo not shown) [Cpd. 95]
# returns the entry with the larger IC50; inputs 1 and 2 Which one? Tell me its label.
2
(2: 139 nM, 1: 32.9 nM)
